# assayMethodText: Solubility via modified protocol with water bath equilibration (Example 17B), HPLC
# Format: physicochemical
# testParameters: propylene glycol, 19 °C, organic solvent or mixture, thermodynamic from solid

{"columns": ["compound", "solubility at 40 min"],
 "data": [
  ["CC(=O)Nc1ccc(OC(=O)SCCS(=O)(=O)[O-])cc1.[Na+] [Test Article A]", "69 mg/mL"]
]}

* * *

# assayMethodText: Solubility testing, initial protocol (Example 17A), HPLC
# Format: physicochemical
# testParameters: organic solvent or mixture, thermodynamic from solid; Ethanol, 18 ° C.

{"columns": ["compound", "solubility at 15 min, µg/mL"],
 "data": [
  ["CC(=O)Nc1ccc(OC(=O)SCCS(=O)(=O)[O-])cc1.[Na+] [Test Article A]", 1000]
]}
